- measurement_target: human recombinant BACE1 (Homo sapiens (Human))
- Sequence (P56817 46-501): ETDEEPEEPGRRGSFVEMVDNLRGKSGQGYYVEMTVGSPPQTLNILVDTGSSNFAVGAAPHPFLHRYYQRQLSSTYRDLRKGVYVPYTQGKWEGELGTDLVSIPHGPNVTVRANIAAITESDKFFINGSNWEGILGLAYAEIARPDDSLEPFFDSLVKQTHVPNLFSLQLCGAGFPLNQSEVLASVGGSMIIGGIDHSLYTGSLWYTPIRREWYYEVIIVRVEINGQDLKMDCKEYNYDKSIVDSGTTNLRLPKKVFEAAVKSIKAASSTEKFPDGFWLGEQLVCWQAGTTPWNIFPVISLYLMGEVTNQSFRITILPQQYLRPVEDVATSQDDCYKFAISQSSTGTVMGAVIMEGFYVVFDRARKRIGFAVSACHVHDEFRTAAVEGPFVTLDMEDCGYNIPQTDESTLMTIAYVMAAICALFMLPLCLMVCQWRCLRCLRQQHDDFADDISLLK
- protocol_description: In vitro enzymatic BACE1 FRET assay
- Assay type: biochemical
- condition_details: BACE1 FRET enzyme assay; read-out: IC50 IP (μM) BACE1 enzyme
- Method: These recombinant proteins were further purified using Ni-NTA affinity chromatography (Qiagen). […] This assay is effectively started by the addition of FRET substrate (50 nM) and the combination is incubated for one hour. The FRET assay is terminated by addition of Tris buffer, which raises the pH to neutrality, and the fluorescence is determined. […] Proteolytic cleavage of the FRET substrate releases quenching of fluorescence (excitation 488 nm and emission 590 nm).
experimental_readout: log10(IC50) (log10 of the value in µM)
Hey, these are logged values: log10 of IC50, µM being the unit before logging.

Past entries and their recorded results:
C[C@]1(c2cc(Nc3nccc4cc(C#N)cnc34)cc(F)c2F)N=C(N)S[C@@]2(CO)C[C@H]21	-2.86
C#CCOc1cnc(C(=O)Nc2cc(F)c(F)c([C@@]3(C)N=C(N)S[C@H]4C[C@H]43)c2)c(C)n1	-2.33
NC1=N[C@](CF)(c2cc(Nc3ncnc4cc(Cl)cnc34)ccc2F)[C@@H]2C[C@]2(CO)S1	-2.20
N#Cc1cnc2c(Nc3cc(F)c(F)c([C@@]4(CF)N=C(N)S[C@@H]5C[C@@H]54)c3)nccc2c1	-1.63
C[C@]1(c2cc(NC(=O)c3ccc(Cl)cn3)ccc2F)N=C(N)S[C@@H]2[C@H]1C2(F)F	-1.82
NC1=N[C@](CF)(c2cc(NC(=O)c3ccc(Cl)cn3)cc(F)c2F)[C@@H]2C[C@@H]2S1 [Example 5]	-2.07

Exercise: Please look at this compound and report its log10(IC50): C#CCOc1ccc(C(=O)Nc2cc(F)c(F)c([C@@]3(C)N=C(N)S[C@@]4(CO)C[C@H]43)c2)nc1
Key: -3.33

* * *

List of IC50 values.
- measurement_target: Recombinant Cat D (Homo sapiens (Human), UniProt P07339)
- Sequence (P07339 65-412): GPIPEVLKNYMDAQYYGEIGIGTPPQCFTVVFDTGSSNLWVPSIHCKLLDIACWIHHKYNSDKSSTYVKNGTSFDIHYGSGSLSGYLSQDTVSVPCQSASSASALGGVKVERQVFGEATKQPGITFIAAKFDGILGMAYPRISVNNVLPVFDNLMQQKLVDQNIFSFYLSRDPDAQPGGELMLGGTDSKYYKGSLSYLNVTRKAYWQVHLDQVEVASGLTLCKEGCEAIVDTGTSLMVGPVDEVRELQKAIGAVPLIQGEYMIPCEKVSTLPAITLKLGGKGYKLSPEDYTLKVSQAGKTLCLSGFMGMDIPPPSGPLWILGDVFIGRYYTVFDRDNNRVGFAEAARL
- protocol_description: In vitro enzymatic Cathepsin D (Cat D) FRET assay
- Type: biochemical
- condition_details: read-out: IC50 IP (μM) CatD
Field: numeric (µM). Do not append units.

Past entries and their recorded results:
C[C@]1(c2cc(Nc3nccc4nc(OCc5ncccc5F)cnc34)cc(F)c2F)N=C(N)S[C@@]2(C(F)F)C[C@@H]12 [Example 873]	95.1
C#CCOc1cnc2c(Nc3cnc(F)c([C@@]4(C)N=C(N)S[C@@]5(C(F)F)C[C@@H]45)c3)nccc2n1 [Example 653]	260
C#C[C@H](C)Oc1cnc(C(=O)Nc2ccc(F)c([C@@]3(C)N=C(N)S[C@@]4(C(=O)NC(C)(C)CF)C[C@H]43)c2)cn1 [Example 1019]	271

Exercise: Please look at this compound and report its IC50: NC1=N[C@](CF)(c2cc(NC(=O)c3ccc(Cl)cn3)ccc2F)[C@@H]2C[C@]2(/C=C/C(=O)N2CC(F)(F)C2)S1 [Example 772]
Key: 82

Exercise: Please look at this compound and report its IC50: Cc1cc(NC(=O)c2cnc(OCC(F)(F)F)cn2)cc([C@@]2(C)N=C(N)S[C@@]3(C(F)F)C[C@@H]23)c1F [Example 1073]
Key: 1300

Exercise: Please look at this compound and report its IC50: COC[C@]12C[C@H]1[C@@](C)(c1cc(Nc3ncnc4cc(OCc5nc(C)oc5C)cnc34)cc(F)c1F)N=C(N)S2 [Example 948]
Key: 80.9

Exercise: Please look at this compound and report its IC50: COC[C@]12C[C@H]1[C@@](C)(c1cc(Nc3ncnc4cc(Cl)cnc34)cnc1F)N=C(N)S2 [Example 844]
Key: 1780
